The measured values listed here are drawn from patent US20240207421A1.

Recorded Count, one value per entry.
Target Of Assay: Laminin 421/521
Assay Remarks: phage display, NGS count
Give the figure only, with no unit attached.

Previously resolved entries follow.
INSERT INTO results (binder, measure_name, reported_result) VALUES
  ('KASIAYD', 'Count', 30),
  ('TFAAAQAELIMV', 'Count', 38),
  ('VPSYILR', 'Count', 30),
  ('GGGYHIFGPLVT', 'Count', 43),
  ('HQSVTGVRSHFH', 'Count', 27);

Task: Suppose we examine the binder CNSWKAAKC ; what Count value has been reported?
Output: 29

Task: Suppose we examine the binder SPDRTNWGWQTN ; what Count value has been reported?
Output: 29
